MEASUREMENT_TARGET: ERα protein (HiBiT-tagged) in ESR1_HiBiT KI MCF7 cells (Homo sapiens, UniProt P03372)
ASSAY_INFO: Nano Glo HiBiT Lytic Degradation Assay
Type: cell-based
ASSAY_CONTEXT: 6 hours with compound, 14-point dose response 1:3, bell-shape curve fit, half-maximal effect of first Hill model, read-out: MCF7 ESR1 HiBiT - (DC50)
Procedure: Selected compounds of the present disclosure were tested in a Nano Glo HiBiT Lytic Degradation Assay to measure the level of ERα protein degradation in MCF7 cells. Cell culture: ESR1_HiBiT KI MCF7 cells were maintained in growth media without antibiotics. […] Cell seeding: Cells were counted using a Vi-Cell and seeded in a 384-well flat-bottom microplate (cell culture-treated) at 4000 cells/well in 25 μL of growth medium using a BioTek MultiFlo Multimode Dispenser. […]
MEASURE: DC50 (nM)

Query: Consider the compound O=C1CC[C@H](N2Cc3cc(N4CCN(CC5CCN(c6ccc([C@@H]7c8ccc(O)cc8CO[C@@H]7c7ccccc7F)cc6)CC5)CC4)ccc3C2=O)C(=O)N1 and give its recorded DC50.
Response: 0.18

Query: Name the recorded DC50 of the compound listed here: O=C1CCC(c2ccc(N3CC[C@@H]4[C@H]3CCN4CC3CCN(c4ccc([C@@H]5c6ccc(O)cc6CC[C@@H]5c5ccccc5)cc4)CC3)cc2)C(=O)N1 (some centres unmarked)
Response: 3300

Query: For the compound O=C1CC[C@H](N2Cc3cc(N4CCN(C5CCN(c6ccc([C@@H]7c8ccc(O)cc8CC[C@@H]7c7ccccc7)cc6)CC5)CC4)ccc3C2=O)C(=O)N1 , give its measured DC50 value.
Response: 0.9

(P) Cn1nc(C2CCC(=O)NC2=O)c2ccc(N3CCN(CC4CCN(c5ccc([C@@H]6c7ccc(O)cc7CC[C@@H]6c6ccccc6)cc5)CC4)CC3)cc21 (some centres unmarked)
(Q) O=C1CC[C@H](N2Cc3cc(N4CCN(CC5CCN(c6ccc([C@H]7c8ccc(O)cc8CC[C@@]78CCCc7ccccc78)cc6)CC5)CC4)ccc3C2=O)C(=O)N1 (single isomer, unassigned)
Query: Lab note: check whether P or Q has the lower measured DC50. Lab log: write the label of the selected item as the result.
Response: P
(P: 1.23 nM, Q: 17 nM)

----------
MEASUREMENT_TARGET: ERα protein (HiBiT-tagged) in ESR1_HiBiT KI MCF7 cells (Homo sapiens, UniProt P03372)
Sequence (P03372 1-595): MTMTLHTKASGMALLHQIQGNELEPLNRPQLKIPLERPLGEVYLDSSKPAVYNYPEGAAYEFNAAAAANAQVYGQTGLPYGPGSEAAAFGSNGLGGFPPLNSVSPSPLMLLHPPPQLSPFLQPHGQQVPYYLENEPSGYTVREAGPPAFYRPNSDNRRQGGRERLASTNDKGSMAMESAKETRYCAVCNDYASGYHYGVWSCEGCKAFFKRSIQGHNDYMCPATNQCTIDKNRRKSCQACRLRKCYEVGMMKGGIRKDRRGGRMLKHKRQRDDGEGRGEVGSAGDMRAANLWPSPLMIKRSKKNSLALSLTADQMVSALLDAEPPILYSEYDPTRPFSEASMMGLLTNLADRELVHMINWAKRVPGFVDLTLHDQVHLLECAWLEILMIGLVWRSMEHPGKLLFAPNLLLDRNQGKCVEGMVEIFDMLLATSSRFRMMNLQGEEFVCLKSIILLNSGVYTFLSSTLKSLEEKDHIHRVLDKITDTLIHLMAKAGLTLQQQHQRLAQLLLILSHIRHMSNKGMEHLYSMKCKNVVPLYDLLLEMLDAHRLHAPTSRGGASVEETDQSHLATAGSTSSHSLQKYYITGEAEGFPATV
ASSAY_INFO: Nano Glo HiBiT Lytic Degradation Assay
Assay type: cell-based
ASSAY_CONTEXT: 6 hours with compound, 14-point dose response 1:3, bell-shape curve fit, half-maximal effect of first Hill model, read-out: MCF7 ESR1 HiBiT - (DC50)
MEASURE: DC50 (nM)

Query: Specify DC50 for O=C1CC[C@H](N2Cc3cc(N4CCN(CC5CCN(c6ccc([C@@H]7c8ccc(O)cc8CO[C@@]78CCc7ccccc78)cc6)CC5)CC4)ccc3C2=O)C(=O)N1 [Compound I-77] and stop.
Response: 0.2

(A) O=C1CC[C@H](c2ccc(N3CCC4(CCN(CC5CCN(c6ccc([C@@H]7c8ccc(O)cc8CO[C@@H]7c7ccccc7)cc6)CC5)C4)CC3)cc2)C(=O)N1 (single isomer, unassigned) [Compound I-389]
(B) O=C1CC[C@H](N2Cc3cc(N4CCN(CC5CCN(c6ccc([C@@H]7c8ccc(O)cc8CO[C@@H]7CC7CC7)cc6)CC5)CC4)ccc3C2=O)C(=O)N1 (single isomer, unassigned) [Compound I-230]
Query: # returns the entry with the larger DC50; inputs A and B Mark your answer with the label of the selected entry.
Response: B
